target: Voltage-gated inwardly rectifying potassium channel KCNH2 (Homo sapiens) (UniProt Q12809); assay: hERG protection against dofetilide inhibition, confirmation, cell-based, thallium flux, duplicate retest, dofetilide IC70 (AID 1835); conditions: hERG cell line, FluxOR thallium flux, dofetilide-blocked; at 10 µM; stronger effect = higher value
Sequence (Q12809 whole entry, looked up): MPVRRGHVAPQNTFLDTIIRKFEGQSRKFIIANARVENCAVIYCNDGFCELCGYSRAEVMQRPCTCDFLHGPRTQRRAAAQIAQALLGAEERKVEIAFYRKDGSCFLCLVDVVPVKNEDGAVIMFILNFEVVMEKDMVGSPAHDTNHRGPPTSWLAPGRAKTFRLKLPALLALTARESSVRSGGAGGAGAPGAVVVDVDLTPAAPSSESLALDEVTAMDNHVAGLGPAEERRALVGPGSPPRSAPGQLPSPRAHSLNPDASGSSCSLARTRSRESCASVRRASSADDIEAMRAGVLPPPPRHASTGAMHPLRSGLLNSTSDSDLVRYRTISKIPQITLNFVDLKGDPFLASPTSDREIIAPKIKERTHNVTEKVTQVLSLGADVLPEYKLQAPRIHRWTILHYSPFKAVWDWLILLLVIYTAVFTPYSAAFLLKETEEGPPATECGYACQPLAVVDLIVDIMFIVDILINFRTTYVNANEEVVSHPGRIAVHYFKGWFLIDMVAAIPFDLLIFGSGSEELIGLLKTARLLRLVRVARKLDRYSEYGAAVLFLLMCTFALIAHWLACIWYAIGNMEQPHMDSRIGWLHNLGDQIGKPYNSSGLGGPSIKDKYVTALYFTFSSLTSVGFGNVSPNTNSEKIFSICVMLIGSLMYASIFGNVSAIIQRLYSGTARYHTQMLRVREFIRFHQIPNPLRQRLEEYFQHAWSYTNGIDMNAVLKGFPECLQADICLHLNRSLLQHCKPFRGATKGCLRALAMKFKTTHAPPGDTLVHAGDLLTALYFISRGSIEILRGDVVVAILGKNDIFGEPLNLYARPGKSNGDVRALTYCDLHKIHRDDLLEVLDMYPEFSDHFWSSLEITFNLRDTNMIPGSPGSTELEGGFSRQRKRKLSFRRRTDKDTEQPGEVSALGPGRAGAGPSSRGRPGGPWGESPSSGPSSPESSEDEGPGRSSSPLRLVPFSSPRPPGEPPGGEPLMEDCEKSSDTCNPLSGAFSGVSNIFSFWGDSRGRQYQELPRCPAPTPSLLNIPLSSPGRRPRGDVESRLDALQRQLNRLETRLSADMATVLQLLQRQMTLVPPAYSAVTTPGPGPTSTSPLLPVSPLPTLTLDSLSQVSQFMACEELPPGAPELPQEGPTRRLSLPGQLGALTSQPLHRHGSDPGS
Hit rate of the full screen: of about 2,400 compounds, about 750 (31%) were called active. This is one part of the list.
Assay Endpoint: activity increase over dofetilide control, less the hit threshold (%)

Molecule: COc1ccc(-n2ncc3c2CC(C)(C)CC3NC(=O)c2cn[nH]c2)cc1 (configuration not stated)
Assay Value: -9

Molecule: O=C(NC(=S)N(CCc1ccccc1)CCc1ccccc1)c1ccco1
Assay Value: 53

Molecule: S=c1[nH]cc(Cc2ccccc2)s1
Assay Value: -5

Molecule: O=[N+]([O-])c1ccccc1OCCNCc1ccccc1
Assay Value: 9

Molecule: COc1ccccc1-n1c(CCC(=O)O)ccc1-c1ccccc1
Assay Value: -12

Molecule: O=C1CCCN1C(=O)COc1ccccc1[N+](=O)[O-]
Assay Value: -13

Molecule: O=c1cc(-c2c(F)c(F)c(F)c(F)c2F)oc2ccccc12
Assay Value: 2

Molecule: CCCn1c(=S)[nH]c2ccc(C(F)(F)F)cc21
Assay Value: -3

Molecule: Cc1ccc(C2=NN(C(=O)CCCC(=O)O)C(c3ccc4c(c3)OCO4)C2)cc1 (configuration not stated)
Assay Value: -23

Molecule: Cc1ccc(-c2noc(CCC(=O)NC3CCCC3)n2)cc1
Assay Value: -7

Molecule: C=CCNC(=S)NC(=O)c1ccc(C)c(Br)c1
Assay Value: -8

Molecule: O=C(COc1ccccc1[N+](=O)[O-])Nc1cc(Cl)ccc1C(=O)O
Assay Value: -10

Molecule: c1ccc(Oc2cccc(OCCn3cncn3)c2)cc1
Assay Value: -4

Molecule: O=C1NC2(CCCCCC2)C(=O)N1Cc1ccccc1
Assay Value: -2

Molecule: Cc1ccc(C(C#N)c2ccc3c(C(F)(F)F)cc(C(F)(F)F)nc3n2)cc1 (configuration not stated)
Assay Value: 8

Molecule: COc1ccc(-c2nc3ccc(C(=O)NCC(OC)OC)cc3nc2-c2ccc(OC)c(OC)c2)cc1OC
Assay Value: -14

Molecule: c1ccc(CCCNc2ncnc3nc[nH]c23)cc1
Assay Value: 11

Molecule: CC(CCc1ccccc1)NC(=S)NC(=O)c1ccco1 (configuration not stated)
Assay Value: 28

Molecule: O=C(/C=C/Nc1ccc(F)c(F)c1)c1cccs1
Assay Value: -18

Molecule: CCOC(=O)CP(=O)(c1ccccc1)c1ccccc1
Assay Value: -9

Molecule: C=CCc1cccc(C2Nc3ccccc3C(=O)N2O)c1O (configuration not stated)
Assay Value: 1

Molecule: CCOC(=O)c1sc(=S)n2c1[nH]c(=O)c1ccc(C(=O)OC)cc12
Assay Value: 51

Molecule: Cc1cccc(NC(=S)NC(=O)c2cc(-c3ccccc3)nc3ccccc23)c1
Assay Value: 8

Molecule: CCOC(=O)C1CCCCN1Cc1ccc(F)cc1 (configuration not stated)
Assay Value: -14

Molecule: CC(C)(C)OC(=O)NCCCC(CCCNC(=O)OC(C)(C)C)C(=O)O
Assay Value: -22

Molecule: O=C(NC(=S)Nc1cc(C(F)(F)F)ccc1Cl)c1ccccc1
Assay Value: 1

Molecule: CCCCn1c(-c2csc(C(C)C)c2)n[nH]c1=S
Assay Value: 8

Molecule: Cc1cc(C)cc(N(C(=O)c2cc3ccccc3oc2=O)C2C=CS(=O)(=O)C2)c1 (configuration not stated)
Assay Value: -13

Molecule: CC(=O)c1ccc(N2CCN(C(=O)Cc3ccccc3)CC2)c(F)c1
Assay Value: -15

Molecule: O=C1CC(O)(C(F)(F)F)Oc2c1ccc1ccccc21 (configuration not stated)
Assay Value: 13

Molecule: COc1ccc(C(=O)NC(=S)N(C)C2CCCCC2)cc1Br
Assay Value: -5

Molecule: O=c1[nH]c(=O)n(CCc2ccc(F)cc2)c(O)c1C=NCc1ccc2c(c1)OCO2
Assay Value: -26

Molecule: O=C(O)c1ccccc1NC(=O)C1CCN(S(=O)(=O)c2cccc3nsnc23)CC1
Assay Value: -3

Molecule: Cc1ccc(-n2ncc3c2CCCC3NC(=O)c2csnn2)cc1C (configuration not stated)
Assay Value: 21

Molecule: C=CCN(CC=C)C(=S)NC(=O)c1ccc(C)c(Br)c1
Assay Value: 100

Molecule: Cc1ccc2cc(CN(CCCN(C)C)C(=S)NCc3ccccc3)c(=O)[nH]c2c1C
Assay Value: -19

Molecule: Fc1ccc(N2CCN(c3ccc4c(C(F)(F)F)cc(C(F)(F)F)nc4n3)CC2)cc1
Assay Value: -8

Molecule: CC1(C)Cc2c(ccc3ccccc23)C2=C(C(=O)N3CCCC3)C(=O)C(=O)N21
Assay Value: -16

Molecule: C=CCN(CC=C)C(=S)NC(=O)c1ccc(OC)c(Br)c1
Assay Value: 48

Molecule: CC(C)Nc1nc(SCC(N)=O)nc(N2CCOCC2)n1
Assay Value: -12

Molecule: CCN(CC)C(=S)NC(=O)c1ccc(OC)c(Br)c1
Assay Value: 11

Molecule: CCC(=O)NC(c1cccs1)c1ccc2cccnc2c1O (configuration not stated)
Assay Value: -8

Molecule: Cc1ccc(OCCC(=O)OC(C)C(=O)NC2CC2)cc1 (configuration not stated)
Assay Value: -12

Molecule: Cc1[nH]c(=S)sc1Cc1ccc(Cl)c(Cl)c1
Assay Value: -12

Molecule: Cc1cc([N+](=O)[O-])nn1CC(=O)Nc1ccc(Cl)cn1
Assay Value: -12

Molecule: CCCOc1ccc(C2NC(=S)NC(c3ccccc3)=C2C(=O)Nc2ccc(C)cc2)cc1OC (configuration not stated)
Assay Value: -5

Molecule: Fc1ccccc1N1CCN(c2cnc3ccccc3n2)CC1
Assay Value: -9
